Data origin: the OligoGym collection

# STUDY TARGET: HIST1H4G
# ASSAY INFO: pooled miR-30 sensor sort-seq; sequence = guide strand; also: reference of the scale not given here
# EXPERIMENTAL PARAMETERS: shRNA
# sensor-assay potency score (higher = more potent) >= -0.1 gives y, anything below gives n

# BIOSEQUENCE, STUDY TARGET, CLASSIFICATION
measured = [
    ("AGGAACACCTTGAACACCCGGC", "HIST1H4G", "n"),
    ("ATTATCGCTCAGTACCTTGCGA", "HIST1H4G", "y"),
    ("ACATTTTCCAGGAACACCTTGA", "HIST1H4G", "y"),
    ("TTATCGCTCAGTACCTTGCGAT", "HIST1H4G", "n"),
    ("TATCGCTCAGTACCTTGCGATG", "HIST1H4G", "n"),
    ("ACACCTTGAACACCCGGCGGGT", "HIST1H4G", "n"),
    ("TACCAGATCACATTTTCCAGGA", "HIST1H4G", "n"),
]

###

# STUDY TARGET: ANAPC5
# ASSAY INFO: pooled miR-30 sensor sort-seq; sequence = guide strand
# EXPERIMENTAL PARAMETERS: shRNA
Below is a list of entries, each paired with its recorded sensor-assay potency score (higher = more potent) value.
ENDPOINT NAME: sensor-assay potency score (higher = more potent)

# BIOSEQUENCE, STUDY TARGET, MEASURED NUMBER
measured = [
    ("TTGAACTGAAAACATCTTGGAC", "ANAPC5", -0.413),
    ("ATAGCTATCGGATCTCTTCTGC", "ANAPC5", 0.457),
    ("TACAGTTTAAACACTTGGCTGA", "ANAPC5", 0.833),
    ("TTTGATTCTGATCTGCACTGAA", "ANAPC5", 0.516),
]

###

# STUDY TARGET: VKORC1
# ASSAY INFO: pooled miR-30 sensor sort-seq; sequence = guide strand
# EXPERIMENTAL PARAMETERS: shRNA
Below is a list of entries, each paired with its recorded sensor-assay potency score (higher = more potent) value.
ENDPOINT NAME: sensor-assay potency score (higher = more potent)

# BIOSEQUENCE, MEASURED NUMBER
data = [
    ("ATAGCATAGGTGGTGATACAAA", -1.7),
    ("TTGATAGCATAGGTGGTGATAC", -0.976),
    ("TAGAGCGAGAGCACTAAGCCCG", -0.598),
    ("ATAGGTGGTGATACAAACAATG", -1.33),
    ("TTGATTGAGGATGCTGTCCTGT", 0.167),
    ("TTGGACCTTCCGGAAACTGAGC", -1.21),
    ("TAGAGCACGAAGAACAGGATCC", -0.705),
    ("TAGGTGGTGATACAAACAATGC", -1.84),
]

###

# STUDY TARGET: FIGF
# ASSAY INFO: pooled miR-30 sensor sort-seq; sequence = guide strand
# EXPERIMENTAL PARAMETERS: shRNA
Below is a list of entries, each paired with its recorded sensor-assay potency score (higher = more potent) value.
ENDPOINT NAME: sensor-assay potency score (higher = more potent)

# BIOSEQUENCE, STUDY TARGET, MEASURED NUMBER
measured = [
    ("TTTGTTGCTATCCCATAGCATG", "FIGF", -1.38),
    ("TAGAAAGTTGCCGCAAACCTAG", "FIGF", -0.566),
    ("TAATTGAGTATGGATGGCGGGG", "FIGF", -0.582),
]
